Quick record: IC50, Nuclear receptor ROR-gamma (Homo sapiens, UniProt P51449).
Reported endpoint: IC50 (µM)

Sample answers from the record:
CCS(=O)(=O)c1ccc(CC(=O)Nc2nc(-c3c(Cl)cccc3Cl)cs2)cc1	6.31
CCS(=O)(=O)c1ccc(CC(=O)Nc2nc(-c3ccc(Cl)cc3)cs2)cc1	3.98
CCS(=O)(=O)c1ccc(CC(=O)Nc2nc(-c3ccccc3Cl)c(C(=O)c3ccccc3)s2)cc1	0.0398

I = CCS(=O)(=O)c1ccc(CC(=O)Nc2nc(-c3cccc(Cl)c3)cs2)cc1
II = CCS(=O)(=O)c1ccc(CC(=O)Nc2nc(-c3cccc(Cl)c3)c(C(=O)c3ccccc3Cl)s2)cc1
### Prompt Lower IC50: I or II ? Indicate your choice by writing its label.
### Response II

###

assay: Half life in C57BL/6 mouse at 1 mg/kg, iv; format: ADME, organism-based; design: dose 1 mg/kg, route intravenous; settings: in vivo
Reported endpoint: half-life (min)

CCS(=O)(=O)c1ccc(CC(=O)Nc2cc(-c3cccc(Cl)c3)c(C(=O)c3ccccc3Cl)s2)cc1	47.4

1 = CCS(=O)(=O)c1ccc(CC(=O)Nc2cc(-c3cccc(Cl)c3)c(C(=O)c3cccc(F)c3)s2)cc1
2 = CCS(=O)(=O)c1ccc(CC(=O)Nc2nc(-c3cccc(Cl)c3)c(C(=O)c3ccccc3Cl)s2)cc1
### Prompt Higher half-life: 1 or 2 ? Indicate your choice by writing its label.
### Response 2

###

Quick record: ΔTm, Nuclear receptor ROR-gamma (Homo sapiens).
Reported endpoint: ΔTm (°C)

Sample answers from the record:
CCS(=O)(=O)c1ccc(CC(=O)Nc2nc(-c3cccc(Cl)c3)c(C(=O)c3ccccc3Cl)s2)cc1	11.3
CCS(=O)(=O)c1ccc(CC(=O)Nc2cc(-c3cccc(Cl)c3)c(C(=O)c3cccc(F)c3)s2)cc1	14.8

P = CCS(=O)(=O)c1ccc(CC(=O)Nc2cc(-c3cccc(Cl)c3)c(C(=O)c3ccccc3Cl)s2)cc1
Q = CCS(=O)(=O)c1ccc(CC(=O)Nc2nc(-c3cc(Cl)ccc3Cl)cs2)cc1
### Prompt Lower ΔTm: P or Q ? Indicate your choice by writing its label.
### Response Q

###

Molecular target: Nuclear receptor ROR-gamma (Mus musculus)
Sequence (P51450 whole entry): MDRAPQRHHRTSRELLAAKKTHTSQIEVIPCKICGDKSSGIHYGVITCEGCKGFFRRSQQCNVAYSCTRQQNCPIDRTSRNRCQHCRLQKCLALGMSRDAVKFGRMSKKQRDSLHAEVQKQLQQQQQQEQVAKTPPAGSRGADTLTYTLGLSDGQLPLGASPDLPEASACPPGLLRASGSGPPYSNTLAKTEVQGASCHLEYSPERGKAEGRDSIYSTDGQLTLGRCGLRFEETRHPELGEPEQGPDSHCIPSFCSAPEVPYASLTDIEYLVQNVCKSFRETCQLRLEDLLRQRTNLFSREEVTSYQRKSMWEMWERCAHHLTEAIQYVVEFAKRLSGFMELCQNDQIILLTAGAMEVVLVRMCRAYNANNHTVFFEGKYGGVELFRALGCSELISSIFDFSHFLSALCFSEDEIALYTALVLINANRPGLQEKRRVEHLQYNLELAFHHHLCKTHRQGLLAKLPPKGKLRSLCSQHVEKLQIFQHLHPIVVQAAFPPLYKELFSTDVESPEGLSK
Assay: Inhibition of RORgammat receptor ligand binding domain in mouse spleen CD4+ T cells assessed as inhibition of IL-17 production after 3 days by ELISA
Reported endpoint: IC50 (µM)

Sample answers from the record:
CCS(=O)(=O)c1ccc(CC(=O)Nc2nc(-c3cccc(Cl)c3)c(C(=O)c3ccccc3Cl)s2)cc1	0.2
CCS(=O)(=O)c1ccc(CC(=O)Nc2nc(-c3ccccc3)c(C(=O)c3ccccc3)s2)cc1	0.316
CCS(=O)(=O)c1ccc(CC(=O)Nc2nc(-c3cccc(Cl)c3)c(C(=O)c3cccc(Cl)c3)s2)cc1	0.251

a = CCS(=O)(=O)c1ccc(CC(=O)Nc2cc(-c3cccc(Cl)c3)c(C(=O)c3ccccc3F)s2)cc1
b = CCS(=O)(=O)c1ccc(CC(=O)Nc2nc(-c3ccc(Cl)cc3)c(C(=O)c3ccccc3)s2)cc1
### Prompt Higher IC50: a or b ? Indicate your choice by writing its label.
### Response b
(b: 0.794 µM, a: 0.01 µM)

a = CCS(=O)(=O)c1ccc(CC(=O)Nc2nc(-c3cccc(Cl)c3)c(C(=O)c3ccccc3F)s2)cc1
b = CCS(=O)(=O)c1ccc(CC(=O)Nc2cc(-c3ccccc3)c(C(=O)c3ccccc3)s2)cc1
### Prompt Higher IC50: a or b ? Indicate your choice by writing its label.
### Response a
(a: 0.316 µM, b: 0.0501 µM)

###

target: Nuclear receptor ROR-gamma (Mus musculus, UniProt P51450); experiment: Inhibition of RORgammat receptor ligand binding domain in mouse spleen CD4+ T cells assessed as inhibition of IL-17 production after 3 days by ELISA
pIC50: −log10 of the molar value.
Reported endpoint: pIC50

Sample answers from the record:
CCS(=O)(=O)c1ccc(CC(=O)Nc2nc(-c3cccc(C#N)c3)c(C(=O)c3ccccc3)s2)cc1	6.80
CCS(=O)(=O)c1ccc(CC(=O)Nc2cc(-c3cccc(Cl)c3)c(C(=O)c3cccc(Cl)c3)s2)cc1	7.60
CCS(=O)(=O)c1ccc(CC(=O)Nc2nc(-c3cccc(Cl)c3)c(C(=O)c3ccc(Cl)cc3)s2)cc1	6.20
CCS(=O)(=O)c1ccc(CC(=O)Nc2nc(-c3cccc(Cl)c3)c(C(=O)c3ccccc3)s2)cc1	6.90
CCS(=O)(=O)c1ccc(CC(=O)Nc2cc(-c3cccc(C(F)(F)F)c3)c(C(=O)c3cccc(F)c3)s2)cc1	7.90
CCS(=O)(=O)c1ccc(CC(=O)Nc2cc(-c3cccc(Cl)c3)c(C(=O)c3ccccc3Cl)s2)cc1	7.60

1 = CCS(=O)(=O)c1ccc(CC(=O)Nc2cc(-c3cccc(Cl)c3)c(C(=O)c3ccccc3)s2)cc1
2 = CCS(=O)(=O)c1ccc(CC(=O)Nc2nc(-c3ccccc3Cl)c(C(=O)c3ccccc3)s2)cc1
3 = CCS(=O)(=O)c1ccc(CC(=O)Nc2cc(-c3cccc(C#N)c3)c(C(=O)c3ccccc3)s2)cc1
4 = CCS(=O)(=O)c1ccc(CC(=O)Nc2cc(-c3cccc(Cl)c3)c(C(=O)c3cccc(F)c3)s2)cc1
5 = CCS(=O)(=O)c1ccc(CC(=O)Nc2nc(-c3cccc(Cl)c3)c(C(=O)c3cccc(F)c3)s2)cc1
### Prompt Sequence the entries by pIC50, beginning with the highest number. Put the labels in the requested order and write them down.
### Response 1, 4, 3, 5, 2

###

test: Clearance in C57BL/6 mouse at 1 mg/kg, iv; assay type: ADME, organism-based; parameters: dose 1 mg/kg, route intravenous; settings: in vivo
Reported endpoint: clearance (L/h/kg)

CCS(=O)(=O)c1ccc(CC(=O)Nc2cc(-c3cccc(Cl)c3)c(C(=O)c3cccc(F)c3)s2)cc1	1.44

1 = CCS(=O)(=O)c1ccc(CC(=O)Nc2cc(-c3cccc(Cl)c3)c(C(=O)c3ccccc3Cl)s2)cc1
2 = CCS(=O)(=O)c1ccc(CC(=O)Nc2nc(-c3cccc(Cl)c3)c(C(=O)c3ccccc3Cl)s2)cc1
### Prompt Higher clearance: 1 or 2 ? Indicate your choice by writing its label.
### Response 1
(1: 3.68 L/h/kg, 2: 1.07 L/h/kg)

###

Quick record: IC50, Nuclear receptor ROR-gamma (Homo sapiens).
Reported endpoint: IC50 (nM)

Sample answers from the record:
CCS(=O)(=O)c1ccc(CC(=O)Nc2nc(-c3ccc(Cl)cc3Cl)cs2)cc1	1260
CCS(=O)(=O)c1ccc(CC(=O)Nc2nc(-c3ccccc3)c(C)s2)cc1	10000
CNS(=O)(=O)c1ccc(CC(=O)Nc2nc(-c3cc(Cl)ccc3Cl)cs2)cc1	1260

1 = CCC(=O)c1sc(NC(=O)Cc2ccc(S(=O)(=O)CC)cc2)nc1-c1ccccc1
2 = CCS(=O)(=O)c1ccc(CC(=O)Nc2nc(C3CCCCC3)cs2)cc1
3 = N#Cc1ccc(CC(=O)Nc2nc(-c3cc(Cl)ccc3Cl)cs2)cc1
### Prompt Ascending by IC50, please. Put the labels in the requested order and write them down.
### Response 2, 1, 3
(2: 1580 nM, 1: 2510 nM, 3: 5010 nM)

The values you see were collected from ChEMBL document CHEMBL3102747.
